assay.remarks: Relative efficiency of fluorescence / absolute sensitivity of label, normalized to dye A30 in PBS
Type: physicochemical
cond: MeOH; excitation and record in absorption and fluorescence maxima; ε*Φ normalized to A30 in PBS
Please respond with reported Sensitivity of record max/ max for every item in the list.
// print number alone

Field request: Sensitivity of record max/ max | item: CCN1C(=CC=CC=CC2=[N+](CCCCS(=O)(=O)[O-])c3ccccc3C2(C)CCCCC(=O)O)C(C)(C)c2ccccc21 (stereo not drawn)
0.737

Field request: Sensitivity of record max/ max | item: CC[N+]1=C(C=CC=CC=C2N(CCCCS(=O)(=O)[O-])c3ccccc3C2(C)C)C(C)(CCCCC(=O)O)c2ccccc21 (stereo not drawn)
0.730

Field request: Sensitivity of record max/ max | item: CCN1/C(=C/C=C/C=C/C2=[N+](CC)c3ccc(S(=O)(=O)[O-])cc3C2(C)C)C(C)(CCCCC(=O)O)c2ccccc21 (stereo not drawn)
0.514

* * *

Please respond with reported ε·10^-5 for every item in the list.
assay.remarks: Molar extinction coefficient in methanol and PBS
Type: physicochemical
Parameters: unit not given here
cond: PBS (10 mM potassium phosphate buffer, 0.9% sodium chloride, pH 7.4)
// print number alone

Field request: ε·10^-5 | item: CC[N+]1=C(/C=C/C=C/C=C2/N(CCCCS(=O)(=O)[O-])c3ccccc3C2(C)CCCCC(=O)O)C(C)(C)c2cc(C)ccc21 (stereo not drawn)
1.99

Field request: ε·10^-5 | item: CC[N+]1=C(/C=C/C=C/C=C2/N(CCCCS(=O)(=O)[O-])c3ccc(C)cc3C2(C)CCCCC(=O)O)C(C)(C)c2cc(C)cc(C)c21 (stereo not drawn)
1.82

Field request: ε·10^-5 | item: CCN1C(=CC=CC=CC2=[N+](CCCCS(=O)(=O)[O-])c3ccccc3C2(C)CCCCC(=O)O)C(C)(C)c2ccccc21 (stereo not drawn)
2.06

Field request: ε·10^-5 | item: CCN1/C(=C/C=C/C=C/C2=[N+](CC)c3ccc(S(=O)(=O)[O-])cc3C2(C)C)C(C)(CCCCC(=O)O)c2ccccc21 (stereo not drawn)
1.80

Field request: ε·10^-5 | item: CCN1C(=CC=CC=CC2=[N+](CCCCS(=O)(=O)[O-])c3ccc(C)cc3C2(C)CCCCC(=O)O)C(C)(C)c2ccccc21 (stereo not drawn)
2.1

Field request: ε·10^-5 | item: CC[N+]1=C(C=CC=CC=C2N(CCCCS(=O)(=O)[O-])c3ccccc3C2(C)C)C(C)(CCCCC(=O)O)c2ccccc21 (stereo not drawn)
2.13

Field request: ε·10^-5 | item: CCN1/C(=C/C=C/C=C/C2=[N+](CC)c3ccccc3C2(C)C)C(C)(CCCCC(=O)O)c2cc(S(=O)(=O)[O-])ccc21 (stereo not drawn)
1.91

Field request: ε·10^-5 | item: CC[N+]1=C(/C=C/C=C/C=C2/N(CCCCS(=O)(=O)[O-])c3ccccc3C2(C)CCCCC(=O)O)C(C)(C)c2cc(C)cc(C)c21 (stereo not drawn)
1.84

Field request: ε·10^-5 | item: CCN1C(=CC=CC=CC2=[N+](CCCCS(=O)(=O)[O-])c3ccc(C)cc3C2(C)CCCCC(=O)O)C(C)(C)c2cc(C)ccc21 (stereo not drawn)
1.96

* * *

assay.remarks: Relative efficiency of fluorescence / absolute sensitivity of label, normalized to dye A30 in PBS
Type: physicochemical
cond: PBS; excitation 635 nm, record 670 nm
recorded.metric: Sensitivity of record 635/ 670
// print number alone

Field request: Sensitivity of record 635/ 670 | item: CC[N+]1=C(/C=C/C=C/C=C2/N(CCCCS(=O)(=O)[O-])c3ccc(C)cc3C2(C)CCCCC(=O)O)C(C)(C)c2cc(C)cc(C)c21 (stereo not drawn)
0.089

Field request: Sensitivity of record 635/ 670 | item: CC[N+]1=C(/C=C/C=C/C=C2/N(CCCCS(=O)(=O)[O-])c3ccccc3C2(C)CCCCC(=O)O)C(C)(C)c2cc(C)ccc21 (stereo not drawn)
0.184

* * *

assay.remarks: Quantum efficiency of fluorescence, measured versus a reference dye
Type: physicochemical
cond: PBS
Please respond with reported Φ (quantum efficiency of fluorescence) for every item in the list.
// print number alone

Field request: Φ (quantum efficiency of fluorescence) | item: CCN1C(=CC=CC=CC2=[N+](CCCCS(=O)(=O)[O-])c3ccccc3C2(C)CCCCC(=O)O)C(C)(C)c2ccccc21 (stereo not drawn)
0.13

Field request: Φ (quantum efficiency of fluorescence) | item: CC[N+]1=C(/C=C/C=C/C=C2/N(CCCCS(=O)(=O)[O-])c3ccccc3C2(C)CCCCC(=O)O)C(C)(C)c2cc(C)cc(C)c21 (stereo not drawn)
0.08

Field request: Φ (quantum efficiency of fluorescence) | item: CCN1C(=CC=CC=CC2=[N+](CCCCS(=O)(=O)[O-])c3ccc(C)cc3C2(C)CCCCC(=O)O)C(C)(C)c2cc(C)ccc21 (stereo not drawn)
0.09

Field request: Φ (quantum efficiency of fluorescence) | item: CCN1/C(=C/C=C/C=C/C2=[N+](CC)c3ccc(S(=O)(=O)[O-])cc3C2(C)C)C(C)(CCCCC(=O)O)c2ccccc21 (stereo not drawn)
0.14

Field request: Φ (quantum efficiency of fluorescence) | item: CCN1/C(=C/C=C/C=C/C2=[N+](CC)c3ccccc3C2(C)C)C(C)(CCCCC(=O)O)c2cc(S(=O)(=O)[O-])ccc21 (stereo not drawn)
0.15

Field request: Φ (quantum efficiency of fluorescence) | item: CC[N+]1=C(C=CC=CC=C2N(CCCCS(=O)(=O)[O-])c3ccccc3C2(C)C)C(C)(CCCCC(=O)O)c2ccccc21 (stereo not drawn)
0.15

Field request: Φ (quantum efficiency of fluorescence) | item: CCN1C(=CC=CC=CC2=[N+](CCCCS(=O)(=O)[O-])c3ccc(C)cc3C2(C)CCCCC(=O)O)C(C)(C)c2ccccc21 (stereo not drawn)
0.10

Field request: Φ (quantum efficiency of fluorescence) | item: CC[N+]1=C(/C=C/C=C/C=C2/N(CCCCS(=O)(=O)[O-])c3ccccc3C2(C)CCCCC(=O)O)C(C)(C)c2cc(C)ccc21 (stereo not drawn)
0.09

Field request: Φ (quantum efficiency of fluorescence) | item: CC[N+]1=C(/C=C/C=C/C=C2/N(CCCCS(=O)(=O)[O-])c3ccc(C)cc3C2(C)CCCCC(=O)O)C(C)(C)c2cc(C)cc(C)c21 (stereo not drawn)
0.07

* * *

Please respond with reported Sensitivity of record 655/ 690 for every item in the list.
assay.remarks: Relative efficiency of fluorescence / absolute sensitivity of label, normalized to dye A30 in PBS
Assay type: physicochemical
cond: MeOH; excitation 655 nm, record 690 nm
// print number alone

Field request: Sensitivity of record 655/ 690 | item: CCN1/C(=C/C=C/C=C/C2=[N+](CC)c3ccc(S(=O)(=O)[O-])cc3C2(C)C)C(C)(CCCCC(=O)O)c2ccccc21 (stereo not drawn) [A7]
0.102

Field request: Sensitivity of record 655/ 690 | item: CCN1C(=CC=CC=CC2=[N+](CCCCS(=O)(=O)[O-])c3ccccc3C2(C)CCCCC(=O)O)C(C)(C)c2ccccc21 (stereo not drawn) [A1]
0.025

Field request: Sensitivity of record 655/ 690 | item: CCN1C(=CC=CC=CC2=[N+](CCCCS(=O)(=O)[O-])c3ccc(C)cc3C2(C)CCCCC(=O)O)C(C)(C)c2cc(C)ccc21 (stereo not drawn) [A5]
0.229

Field request: Sensitivity of record 655/ 690 | item: CCN1/C(=C/C=C/C=C/C2=[N+](CC)c3ccccc3C2(C)C)C(C)(CCCCC(=O)O)c2cc(S(=O)(=O)[O-])ccc21 (stereo not drawn) [A9]
0.124

Field request: Sensitivity of record 655/ 690 | item: CC[N+]1=C(C=CC=CC=C2N(CCCCS(=O)(=O)[O-])c3ccccc3C2(C)C)C(C)(CCCCC(=O)O)c2ccccc21 (stereo not drawn) [A8]
0.134

Field request: Sensitivity of record 655/ 690 | item: CC[N+]1=C(/C=C/C=C/C=C2/N(CCCCS(=O)(=O)[O-])c3ccccc3C2(C)CCCCC(=O)O)C(C)(C)c2cc(C)ccc21 (stereo not drawn) [A2]
0.149

Field request: Sensitivity of record 655/ 690 | item: CC[N+]1=C(/C=C/C=C/C=C2/N(CCCCS(=O)(=O)[O-])c3ccc(C)cc3C2(C)CCCCC(=O)O)C(C)(C)c2cc(C)cc(C)c21 (stereo not drawn) [A6]
0.198

Field request: Sensitivity of record 655/ 690 | item: CCN1C(=CC=CC=CC2=[N+](CCCCS(=O)(=O)[O-])c3ccc(C)cc3C2(C)CCCCC(=O)O)C(C)(C)c2ccccc21 (stereo not drawn) [A4]
0.143

Field request: Sensitivity of record 655/ 690 | item: CC[N+]1=C(/C=C/C=C/C=C2/N(CCCCS(=O)(=O)[O-])c3ccccc3C2(C)CCCCC(=O)O)C(C)(C)c2cc(C)cc(C)c21 (stereo not drawn) [A3]
0.138
